Assay: Rat 28-day GLP repeat dose PO study (toxicokinetics)
Format: in vivo
Conditions: female, rat, in vivo, po, 2000 mg/kg, Day 28, F, 2000 mg/kg PO; read-out: tmax
Description: The vehicle was 0.5% HPMC. There were 15 rats/sex in the control and high dose groups (5/sex for a 14-day recovery period) while the low and mid doses consisted of 10 rats/sex. Satellite groups of rats/sex/group for toxicokinetics were included. Rats in Group 1 (Vehicle Control) were bled once at approximately 1 hour post-dose on those days.
Counter-ions that a name gives are not always drawn.

MOLECULE | Tmax, min
CC1(C)SC(Nc2ccccc2O)=N[C@@H]1C(=O)O [Compound 1, mono-hydrochloride] | 30

====

Assay: Dog 28-day repeat dose PO study
Type: in vivo
Details: female, beagle, dog, in vivo, po, 250 mg/kg, Day 1, 250 mg/kg PO, F; read-out: Cmax
Experimental: Beagle dogs (4/sex/group plus 2/sex/group for control and high dose animals for recovery) were administered daily doses of 0, 100, 250 or 400 mg/kg/day of Compound 1 in 0.5% HPMC. […] Dogs in Group 1 (Vehicle Control) were bled once at approximately 2-4 hours post-dose on those days.
Where a name gives a salt, the structure may show the parent alone.

COMPOUND | Cmax (µg/mL)
CC1(C)SC(Nc2ccccc2O)=N[C@@H]1C(=O)O [Compound 1, mono-hydrochloride] | 101

====

Assay: Rat pharmacokinetics after single PO dose
Details: male, Sprague Dawley, rat, plasma, po, 100 mg/kg
Where a name gives a salt, the structure may show the parent alone.

COMPOUND | concentration at 4 h, ng/mL
CC1(C)SC(Nc2ccccc2O)=N[C@@H]1C(=O)O [Compound 1, mono-hydrochloride] | 6150

====

Experiment: Rat 28-day GLP repeat dose PO study (toxicokinetics)
Type: in vivo
Details: female, rat, in vivo, po, 1000 mg/kg, Day 28, F, 1000 mg/kg PO; read-out: tmax
Where a name gives a salt, the structure may show the parent alone.
READOUT TYPE: Tmax (h)

MOLECULE | READOUT TYPE | NUMERIC RESULT
CC1(C)SC(Nc2ccccc2O)=N[C@@H]1C(=O)O [Compound 1, mono-hydrochloride] | Tmax | 1

====

Assay: Dog pharmacokinetics after single PO (10 mg/kg) and IV (3 mg/kg) dose
Format: in vivo
Conditions: male, dog, plasma; 10 mg/kg PO
Counter-ions that a name gives are not always drawn.

MOLECULE | Tmax
CC1(C)SC(Nc2ccccc2O)=N[C@@H]1C(=O)O [Compound 1, mono-hydrochloride] | ~1 h

====

Molecular target: CYP1A2 (Homo sapiens, UniProt P05177)
Construct: tissue BD Gentest; host or cells: human liver microsomes
Sequence (P05177 whole entry): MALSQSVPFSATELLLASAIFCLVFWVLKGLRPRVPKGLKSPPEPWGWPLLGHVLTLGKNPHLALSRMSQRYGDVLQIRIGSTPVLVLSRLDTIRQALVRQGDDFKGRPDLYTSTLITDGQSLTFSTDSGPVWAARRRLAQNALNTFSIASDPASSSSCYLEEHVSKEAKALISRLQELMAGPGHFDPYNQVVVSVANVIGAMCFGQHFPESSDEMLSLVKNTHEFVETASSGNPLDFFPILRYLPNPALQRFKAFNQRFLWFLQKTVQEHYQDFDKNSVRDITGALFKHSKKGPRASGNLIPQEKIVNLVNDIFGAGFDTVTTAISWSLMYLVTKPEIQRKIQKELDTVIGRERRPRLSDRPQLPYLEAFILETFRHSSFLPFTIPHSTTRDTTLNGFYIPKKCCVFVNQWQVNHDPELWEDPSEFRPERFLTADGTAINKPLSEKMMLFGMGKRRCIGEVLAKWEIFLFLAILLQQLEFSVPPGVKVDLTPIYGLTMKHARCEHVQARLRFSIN
Experiment: CYP inhibition in human liver microsomes
Assay type: in vitro ADME
Details: human liver microsomes, known substrate of the CYP isoform; read-out: IC50 (μM) CYP 1A2
Counter-ions that a name gives are not always drawn.
READOUT TYPE: IC50

MOLECULE | READOUT TYPE | RESULT
CC1(C)SC(Nc2ccccc2O)=N[C@@H]1C(=O)O [Compound 1, mono-hydrochloride] | IC50 | > 100 µM

====

Assay: Dog 7-day repeat dose PO study
Assay type: in vivo
Details: male, plasma, 200 mg/kg, Day 1, 200 mg/kg PO, M, N = 1
Counter-ions that a name gives are not always drawn.

COMPOUND | READOUT UNITS | AUC(0-t)
CC1(C)SC(Nc2ccccc2O)=N[C@@H]1C(=O)O [Compound 1, mono-hydrochloride] | µg·h/mL | 538
